The measurements presented in this section are drawn from patent EP3693362B1.

subject_of_test: UniProt A0A0M4AMP1
Sequence (A0A0M4AMP1 1-285): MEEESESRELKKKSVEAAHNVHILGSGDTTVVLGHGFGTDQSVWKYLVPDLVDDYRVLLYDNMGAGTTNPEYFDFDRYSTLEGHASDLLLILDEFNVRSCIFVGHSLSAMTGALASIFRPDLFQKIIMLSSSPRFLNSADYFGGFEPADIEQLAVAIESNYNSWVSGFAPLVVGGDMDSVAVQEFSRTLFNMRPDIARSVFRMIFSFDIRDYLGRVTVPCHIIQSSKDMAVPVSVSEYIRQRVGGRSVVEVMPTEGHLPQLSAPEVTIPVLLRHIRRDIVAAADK
pIC50: −log10 of the molar value.
Provide the reported pIC50 of each item.

For each of the items listed, what is its pIC50?
1. CC1=CC(OC=C2C(=O)OC3C4=C(CCCC4(C)C)CC23)OC1=O (stereo not shown) [5-Ddeoxystriqol, 5-deoxystrigol, reference compound]
2. CCCCOc1ccc(S(=O)(=O)N2CCN(C(=O)OC3C=CC(=O)O3)CC2)cc1 (stereo not shown)
3. CCCCOc1ccc(S(=O)(=O)N2CCN(C(=O)OC3C=C(C)C(=O)O3)CC2)cc1 (stereo not shown)
4. CC1=CC(OC(=O)NCc2ccccc2)OC1=O (stereo not shown) [Comparison Compound 1, reference compound]

5.05
< 5.00
< 5.00
< 5.00
